The values you see were collected from patent US11274268B2.

- Test system: human skin
- method-description: Skin irritation test of active ingredient (patch method, CTFA guidelines)
- Format: in vivo
- experimental-parameters: content 0.1%; 20 subjects; 24 hours patch; apparent reddening
assay-endpoint: Test result (number of subject) (+)

* O=C(O)CN(CCN(CCN(CC(=O)O)CC(=O)O)CC(=O)O)CCN(CC(=O)O)CC(=O)O | 0
* O=C(O)c1cncc(N2CCN(c3cncc(C(=O)O)c3)CCN(c3cncc(C(=O)O)c3)CCN(c3cncc(C(=O)O)c3)CC2)c1 | 0
* C1CNCCNCCNCCN1 | 0
* O=C(O)c1ccc(N2CCCN(c3ccc(C(=O)O)cc3)CCN(c3ccc(C(=O)O)cc3)CCCN(c3ccc(C(=O)O)cc3)CC2)cc1 | 0
* NCCNCCNCCN [Trientine, Triethylenetetramine, reference compound] | 0
* O=C(O)c1ccc(N(CCN(CCN(c2ccc(C(=O)O)cc2)c2ccc(C(=O)O)cc2)c2ccc(C(=O)O)cc2)CCN(c2ccc(C(=O)O)cc2)c2ccc(C(=O)O)cc2)cc1 | 0
* O=C(O)c1ccc(N2CCN(c3ccc(C(=O)O)o3)CCN(c3ccc(C(=O)O)o3)CCN(c3ccc(C(=O)O)o3)CC2)o1 | 0
* O=C(O)c1cncc(N2CCCN(c3cncc(C(=O)O)c3)CCN(c3cncc(C(=O)O)c3)CCCN(c3cncc(C(=O)O)c3)CC2)c1 | 0
